test system: H4; experiment: Cytotoxicity against human H4 cells assessed as reduction of viability; format: cell-based
endpoint_name: Activity (µM)
Provide the reading as a plain figure in µM.

## Task Reported Activity, molecule CC(C)c1cc(C(C)C)c(S(=O)(=O)n2c3ccc(Cl)cc3c3ccc(C(C)C(=O)O)cc32)c(C(C)C)c1 (centres undefined) : ____
## Result 40

## Task Reported Activity, molecule CCCCCCCCN(c1ccc(OCC(=O)O)cc1)S(=O)(=O)c1cc(C(F)(F)F)cc(C(F)(F)F)c1 : ____
## Result 40

## Task Reported Activity, molecule CC(C)c1cc(C(C)C)c(S(=O)(=O)n2c3ccccc3c3ccc(OCC(=O)O)cc32)c(C(C)C)c1 : ____
## Result 20

The origin of these recorded values is ChEMBL document CHEMBL1139797.
